- tested.system: Polymerase basic protein 2 (Influenza A virus (strain A/Puerto Rico/8/1934 H1N1))
- Sequence (P03428 whole entry): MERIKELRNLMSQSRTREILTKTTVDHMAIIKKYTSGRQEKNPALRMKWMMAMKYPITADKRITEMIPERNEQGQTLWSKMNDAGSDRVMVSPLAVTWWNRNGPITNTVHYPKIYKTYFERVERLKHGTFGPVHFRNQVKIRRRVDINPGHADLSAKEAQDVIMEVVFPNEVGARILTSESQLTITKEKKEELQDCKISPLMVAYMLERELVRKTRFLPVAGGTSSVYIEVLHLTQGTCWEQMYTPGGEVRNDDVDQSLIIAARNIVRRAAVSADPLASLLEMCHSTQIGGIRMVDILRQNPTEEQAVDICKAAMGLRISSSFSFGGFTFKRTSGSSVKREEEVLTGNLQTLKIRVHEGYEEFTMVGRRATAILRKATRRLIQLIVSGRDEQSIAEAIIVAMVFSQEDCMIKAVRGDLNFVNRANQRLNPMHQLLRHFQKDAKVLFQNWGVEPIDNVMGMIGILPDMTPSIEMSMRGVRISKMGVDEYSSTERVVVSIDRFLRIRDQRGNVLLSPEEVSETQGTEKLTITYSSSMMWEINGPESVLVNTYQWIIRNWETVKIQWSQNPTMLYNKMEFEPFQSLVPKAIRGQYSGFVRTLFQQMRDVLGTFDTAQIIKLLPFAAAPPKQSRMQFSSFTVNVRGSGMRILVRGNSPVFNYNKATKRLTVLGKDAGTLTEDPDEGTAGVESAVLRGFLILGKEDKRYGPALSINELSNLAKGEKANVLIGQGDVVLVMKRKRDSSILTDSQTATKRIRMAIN
- method.description: Binding affinity to Influenza A virus RNA polymerase PB2 by SPR assay
Provide the recorded pKd for the entries that follow.
Give bare numbers, as −log10 of the molar value.

O=c1oc2cc(O)cc(O)c2c2ccccc12    5.44

Please examine the following record next.
API: value(readout= pKd, system= Polymerase basic protein 2 (Influenza A virus (strain A/Puerto Rico/8/1934 H1N1)), query= `CC/C=C1/C=CC(=O)[C@@H](O)[C@]12C(=O)N(OC)[C@@](C)(OC)[C@@H]2O` )
7.11

###

- Test system: OS-RC-2
- method.description: Cytotoxicity against human OS-RC2 cells by MTT assay
- Format: functional, cell-based
Provide the recorded IC50 for the entries that follow.

C=C1[C@H](O)[C@@]2(C(=O)N1OC)/C(=C\CC)C=CC(=O)[C@H]2O    > 50 µM

Please examine the following record next.
API: value(readout= IC50, system= OS-RC-2, query= `CC/C=C1/C=CC(=O)[C@@H](O)[C@]12C(=O)N(OC)[C@@](C)(OC)[C@@H]2O` )
> 50 µM
